target: Plk1-Map interaction (Homo sapiens, UniProt P53350); assay: BRET Plk1-Map, transient Luc-Map/Plk1-GFP in HEK293T; type: cell-based; parameters: cDNAs for the human full length Plk1; expressed in transfected cells; details: confirmation screen
Sequence (P53350 whole entry): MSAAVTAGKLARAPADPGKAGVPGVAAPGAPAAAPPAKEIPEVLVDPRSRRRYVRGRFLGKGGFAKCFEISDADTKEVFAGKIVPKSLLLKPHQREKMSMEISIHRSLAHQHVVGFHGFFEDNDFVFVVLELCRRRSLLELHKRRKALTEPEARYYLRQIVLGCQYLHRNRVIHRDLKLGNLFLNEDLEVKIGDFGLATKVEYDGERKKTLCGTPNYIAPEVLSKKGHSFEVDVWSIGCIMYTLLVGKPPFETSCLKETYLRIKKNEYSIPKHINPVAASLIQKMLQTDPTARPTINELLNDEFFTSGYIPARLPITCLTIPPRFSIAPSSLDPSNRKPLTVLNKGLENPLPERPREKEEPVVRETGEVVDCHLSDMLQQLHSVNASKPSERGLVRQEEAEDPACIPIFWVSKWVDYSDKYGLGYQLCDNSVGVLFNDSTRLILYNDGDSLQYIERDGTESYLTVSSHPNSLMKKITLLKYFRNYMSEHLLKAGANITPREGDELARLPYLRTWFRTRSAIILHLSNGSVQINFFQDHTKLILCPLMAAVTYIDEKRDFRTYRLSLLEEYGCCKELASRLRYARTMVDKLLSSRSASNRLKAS
MEASUREMENT TYPE: Confirmation Plk1-Map (transient) % Quench RLuc (%)

[[record]]
compound = "N#Cc1cccnc1S(=O)(=O)CCOC(=O)c1cccc(Cl)c1 [Cpd 15]"
quantitative_result = 72.97


[a] COc1ccc(-c2oc3ccccc3c(=O)c2OS(=O)(=O)c2ccccc2)cc1 [Cpd 46]
[b] COc1ccc(-c2oc3ccccc3c(=O)c2OS(=O)(=O)c2cc(Cl)ccc2Cl)cc1 [Cpd 122]
Which is greater in Confirmation Plk1-Map (transient) % Quench RLuc, the first item a or the second item b ? Refer to your chosen item by its label in the answer.
a

These data points were gathered from paper PMC5118709.
